Test system: adult Tetranychus cinnabarinus
experimental-details: Activity assay of adult Tetranychus cinnabarinus (whole-plant spray on bean seedlings)
Type: in vivo
experimental-context: adult mites, concentration 1.25 mg/L, 48 h, parallel determination, read-out: Death rate (%)
Parameter: pest or weed control at 1.25 µg/mL. Scope: all listed entries.
The answer is to be given in %; state only the numeric part.

1) CCCC(=O)OC(C)OC(=C(C#N)c1ccc(C(C)(C)C)cc1)c1ccccc1C(F)(F)F (centres unmarked) [Compound 8-3, reference compound] = 45
2) CCn1nc(C)c(Cl)c1/C(OC(C)OC(=O)OC)=C(\C#N)c1ccc(C(C)(C)C)cc1 (centres unmarked) = 100
3) CCCC(=O)OCOC(=C(C#N)c1ccc(C(C)(C)C)cc1)c1ccccc1C(F)(F)F [Compound 8-4, reference compound] = 50
4) CCn1nc(C)cc1/C(OCOC(=O)C1CC1)=C(\C#N)c1ccc(C(C)(C)C)cc1 = 100
5) CCOC(=O)OC(C)O/C(=C(/C#N)c1ccc(C(C)(C)C)cc1)c1c(Cl)c(C)nn1CC (centres unmarked) = 100

CC(=O)OCOC(=C(C#N)c1ccc(C(C)(C)C)cc1)c1ccccc1C(F)(F)F [Compound 8-2, reference compound] tested on adult Tetranychus cinnabarinus gave pest or weed control at 1.25 µg/mL: 30

`CCC(=O)OCO/C(=C(/C#N)c1ccc(C(C)(C)C)cc1)c1c(Cl)c(C)nn1CC` tested on adult Tetranychus cinnabarinus gave pest or weed control at 1.25 µg/mL: 96

CCC(=O)OC(C)O/C(=C(/C#N)c1ccc(C(C)(C)C)cc1)c1cc(C)nn1CC (centres unmarked) tested on adult Tetranychus cinnabarinus gave pest or weed control at 1.25 µg/mL: 100

`CCn1nc(C)c(C)c1/C(OCOC(=O)OC)=C(\C#N)c1ccc(C(C)(C)C)cc1` tested on adult Tetranychus cinnabarinus gave pest or weed control at 1.25 µg/mL: 95

`CCn1nc(C)c(C)c1/C(OCOC(=O)OCC(C)C)=C(\C#N)c1ccc(C(C)(C)C)cc1` tested on adult Tetranychus cinnabarinus gave pest or weed control at 1.25 µg/mL: 100

====

System: Eggs of Tetranychus Cinnabarinus
experimental-details: Activity assay of eggs of Tetranychus cinnabarinus (spray method, ovicidal)
Type: in vivo
experimental-context: Tetranychus cinnabarinus; concentration 5 mg/L; spray; non-incubated eggs counted as dead; read-out: ovicidal activity
parameter-measured: pest or weed control at 5 µg/mL

1) CCn1nc(C)c(Cl)c1/C(OCOC(=O)C(F)(F)F)=C(\C#N)c1ccc(C(C)(C)C)cc1 = ≥ 90%
2) CCC(=O)OCO/C(=C(/C#N)c1ccc(C(C)(C)C)cc1)c1c(Cl)c(C)nn1C = ≥ 90%
3) CCn1nc(C)cc1/C(OCOC(=O)OCC(=O)OC)=C(\C#N)c1ccc(C(C)(C)C)cc1 = ≥ 90%
4) CCn1nc(C)c(Cl)c1/C(OCOC(=O)C(C)(C)C)=C(\C#N)c1ccc(C(C)(C)C)cc1 = ≥ 90%
5) CCn1nc(C)cc1/C(OCOC(=O)OCC(C)C)=C(\C#N)c1ccc(C(C)(C)C)cc1 = ≥ 90%
6) CCn1nc(C)c(Cl)c1/C(OCOC(=O)C1CC1)=C(\C#N)c1ccc(C(C)(C)C)cc1 = ≥ 90%
7) Cc1cc(/C(OC(C)OC(=O)OCC(C)C)=C(\C#N)c2ccc(C(C)(C)C)cc2)n(C)n1 (stereo not shown) = ≥ 90%
8) CCn1nc(C)c(C)c1/C(OC(C)OC(C)=O)=C(\C#N)c1ccc(C(C)(C)C)cc1 (stereo not shown) = ≥ 90%

Continue with the compound presented below.
compound `CCn1nc(C)c(Cl)c1/C(OCOC(=O)CC(C)C)=C(\C#N)c1ccc(C(C)(C)C)cc1` , pest or weed control at 5 µg/mL observed: ≥ 90%
